Assay: Cmax in mouse at 10 mg/kg, po
Type: ADME, organism-based
Set-up: dose 10 mg/kg, route oral
Settings: in vivo
READOUT KIND: Cmax (ng/mL)

(I) CC(=O)N(C)c1ccc(OCc2ccc(C(F)(F)F)c(O)c2C(=O)OC(C)(C)C)cc1
(II) CC(C)(C)OC(=O)c1c(COc2ccc(-c3ccc(CC(=O)O)cc3)cc2)ccc(C(F)(F)F)c1O
Query: Param pair: I , II . Output: the one whose Cmax is numerically greater. # answer = label of selected item
Result: II
(II: 8900 ng/mL, I: 1000 ng/mL)

---

Molecular target: Oxysterols receptor LXR-alpha (Homo sapiens) (UniProt Q13133)
Test: Agonist activity at human LXRalpha expressed in African green monkey kidney CV1 cells co-expressing pTAL-LXRE including LXR response element incubated for 20 hrs by luciferase reporter gene assay relative to T0901317
Type: cell-based
Conditions: CV-1
READOUT KIND: Efficacy (%)

Guide cases for Efficacy, answers given:
{"STRUCTURE": "CC(C)(C)OC(=O)c1c(COc2ccc(-c3ccc(CC(=O)O)cc3)cc2)ccc(C(F)(F)F)c1O", "READOUT KIND": "Efficacy", "READOUT UNITS": "%", "NUMERIC RESULT": 79}
{"STRUCTURE": "CC(C)(C)OC(=O)c1c(COc2ccc(-c3cccc(CC(=O)O)c3)cc2)ccc(C(F)(F)F)c1O", "READOUT KIND": "Efficacy", "READOUT UNITS": "%", "NUMERIC RESULT": 39}

(I) CC(=O)N(C)c1ccc(OCc2ccc(C(F)(F)F)c(O)c2C(=O)OC(C)(C)C)cc1
(II) CC(=O)N(C)c1ccc(OCc2ccc(C(F)(F)F)cc2C(=O)OC(C)(C)C)cc1
Query: # return whichever of I and II has the smaller Efficacy Which one? Tell me its label.
Result: II
(II: 27%, I: 89%)

---

Biological target: Oxysterols receptor LXR-beta (Homo sapiens)
Sequence (P55055 whole entry): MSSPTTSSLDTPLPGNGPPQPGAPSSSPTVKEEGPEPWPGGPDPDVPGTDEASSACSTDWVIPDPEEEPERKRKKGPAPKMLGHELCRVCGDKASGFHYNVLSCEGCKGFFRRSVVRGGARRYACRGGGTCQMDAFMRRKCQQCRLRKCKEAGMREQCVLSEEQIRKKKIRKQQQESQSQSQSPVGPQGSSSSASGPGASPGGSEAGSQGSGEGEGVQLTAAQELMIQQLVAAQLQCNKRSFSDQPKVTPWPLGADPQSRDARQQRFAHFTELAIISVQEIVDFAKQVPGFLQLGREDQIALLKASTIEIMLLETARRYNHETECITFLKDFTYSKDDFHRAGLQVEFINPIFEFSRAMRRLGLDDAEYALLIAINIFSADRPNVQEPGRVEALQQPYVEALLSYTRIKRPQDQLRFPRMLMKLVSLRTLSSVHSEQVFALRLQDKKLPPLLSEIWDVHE
Assay: Agonist activity at human LXRbeta expressed in African green monkey kidney CV1 cells co-expressing pTAL-LXRE including LXR response element incubated for 20 hrs by luciferase reporter gene assay
READOUT KIND: EC50 (nM)

Before answering, review these 2 worked examples.
{"STRUCTURE": "CC(=O)N(C)c1ccc(OCc2ccc(C(F)(F)F)cc2C(=O)OC(C)(C)C)cc1", "EC50, nM": 210}
{"STRUCTURE": "CC(C)(C)OC(=O)c1c(COc2ccc(-c3cccc(CC(=O)O)c3)cc2)ccc(C(F)(F)F)c1O", "EC50, nM": 530}

(A) CC(=O)N(C)c1ccc(OCc2ccc(C(F)(F)F)c(O)c2C(=O)OC(C)(C)C)cc1
(B) CC(C)(C)OC(=O)c1c(COc2ccc(-c3ccc(CC(=O)O)cc3)cc2)ccc(C(F)(F)F)c1O
Query: Please indicate which item has the smaller measured EC50: A versus B Lab note: record the label of whichever item you select.
Result: B

---

Target: Oxysterols receptor LXR-alpha (Homo sapiens, UniProt Q13133)
Sequence (Q13133 whole entry): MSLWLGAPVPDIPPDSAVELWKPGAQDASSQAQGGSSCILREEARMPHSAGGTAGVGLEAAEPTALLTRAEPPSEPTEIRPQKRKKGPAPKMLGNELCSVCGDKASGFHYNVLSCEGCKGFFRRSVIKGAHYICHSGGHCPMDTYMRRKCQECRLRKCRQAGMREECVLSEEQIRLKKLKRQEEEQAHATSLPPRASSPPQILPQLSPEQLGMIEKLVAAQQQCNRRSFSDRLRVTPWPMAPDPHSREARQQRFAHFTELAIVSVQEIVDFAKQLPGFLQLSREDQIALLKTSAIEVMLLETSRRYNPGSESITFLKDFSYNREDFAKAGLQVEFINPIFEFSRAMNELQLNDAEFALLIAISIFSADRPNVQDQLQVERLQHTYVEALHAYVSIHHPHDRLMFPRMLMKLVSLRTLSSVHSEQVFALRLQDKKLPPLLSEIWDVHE
Assay: Agonist activity at human LXRalpha expressed in African green monkey kidney CV1 cells co-expressing pTAL-LXRE including LXR response element incubated for 20 hrs by luciferase reporter gene assay
pEC50: −log10 of the molar value.
READOUT KIND: pEC50

Field: example entries. Status: answers known.
{"STRUCTURE": "CC(C)(C)OC(=O)c1c(COc2ccc(-c3ccc(CC(=O)O)cc3)cc2)ccc(C(F)(F)F)c1O", "NUMERIC RESULT": 6.29}
{"STRUCTURE": "CC(=O)N(C)c1ccc(OCc2ccc(C(F)(F)F)cc2C(=O)OC(C)(C)C)cc1", "NUMERIC RESULT": 6.51}

(a) CC(=O)N(C)c1ccc(OCc2ccc(C(F)(F)F)c(O)c2C(=O)OC(C)(C)C)cc1
(b) CC(C)(C)OC(=O)c1c(COc2ccc(-c3cccc(CC(=O)O)c3)cc2)ccc(C(F)(F)F)c1O
Query: Smaller pEC50 value, a vs b ? When you have decided, please share the label of that item.
Result: b
(b: 5.89, a: 6.55)

---

Target: Retinoic acid receptor RXR-alpha/oxysterols receptor LXR-alpha (Homo sapiens)
Sequence (P19793 whole entry): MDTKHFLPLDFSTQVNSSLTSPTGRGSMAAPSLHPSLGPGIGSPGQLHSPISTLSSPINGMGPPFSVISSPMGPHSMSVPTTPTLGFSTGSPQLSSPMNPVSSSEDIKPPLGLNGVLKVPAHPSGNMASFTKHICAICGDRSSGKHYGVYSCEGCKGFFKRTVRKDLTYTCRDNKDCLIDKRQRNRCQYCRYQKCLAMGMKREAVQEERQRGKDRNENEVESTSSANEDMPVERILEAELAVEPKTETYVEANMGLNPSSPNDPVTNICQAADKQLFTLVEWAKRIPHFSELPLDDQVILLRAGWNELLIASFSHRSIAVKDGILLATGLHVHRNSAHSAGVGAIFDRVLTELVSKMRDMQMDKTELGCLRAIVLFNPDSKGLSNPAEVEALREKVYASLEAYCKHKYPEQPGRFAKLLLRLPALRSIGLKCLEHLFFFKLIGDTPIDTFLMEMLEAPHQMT
Sequence (Q13133 whole entry): as the sequence (Q13133 whole entry) above
Assay: Binding affinity to His-LXRalpha/FLAG-RXRalpha (unknown origin) by FITC-labeled T0901317 based fluorescence polarization assay
pKi: −log10 of the molar value.
READOUT KIND: pKi

Reference set, count: 3
{"STRUCTURE": "CC(C)(C)OC(=O)c1cc(C(F)(F)F)ccc1COc1ccc(-c2ccc(CC(=O)O)cc2)cc1", "NUMERIC RESULT": 6.00}
{"STRUCTURE": "CN(C(=O)CCC(=O)O)c1ccc(OCc2ccc(C(F)(F)F)cc2C(=O)OC(C)(C)C)cc1", "NUMERIC RESULT": 5.40}
{"STRUCTURE": "CC(C)(C)OC(=O)c1cc(C(F)(F)F)ccc1COc1ccc(-c2cccc(C(=O)O)c2)cc1", "NUMERIC RESULT": 5.20}

(A) CC(=O)N(C)c1ccc(OCc2ccc(C(F)(F)F)cc2C(=O)OC(C)(C)C)cc1
(B) CC(C)(C)OC(=O)c1cc(C(F)(F)F)ccc1COc1ccc(CCCCCC(=O)O)cc1
(C) CC(=O)N(C)c1ccc(OCc2ccc(C(F)(F)F)c(O)c2C(=O)OC(C)(C)C)cc1
(D) CC(C)(C)OC(=O)c1cc(C(F)(F)F)ccc1COc1ccc(-c2cccc(CC(=O)O)c2)cc1
Query: Order the items by recorded pKi; the first position goes to the largest value. Please reply with the labels ordered as requested. Many thanks.
Result: C, A, D, B
(C: 6.57, A: 6.06, D: 5.29, B: 5.07)

---

Experiment: Plasma concentration in mouse at 10 mg/kg, po measured at 6 hrs
Format: ADME, organism-based
READOUT KIND: concentration at 6 h (ng/mL)

{"STRUCTURE": "CC(C)(C)OC(=O)c1c(COc2ccc(-c3ccc(CC(=O)O)cc3)cc2)ccc(C(F)(F)F)c1O", "READOUT KIND": "concentration at 6 h", "NUMERIC RESULT": 5300}

(P) CC(=O)N(C)c1ccc(OCc2ccc(C(F)(F)F)c(O)c2C(=O)OC(C)(C)C)cc1
(Q) CC(=O)N(C)c1ccc(OCc2ccc(C(F)(F)F)cc2C(=O)OC(C)(C)C)cc1
Query: Please choose the item with the lower concentration at 6 h value from this pair: P and Q I would appreciate it if you answered with the label of your choice.
Result: P
(P: 670 ng/mL, Q: 1000 ng/mL)

---

Target: Retinoic acid receptor RXR-alpha/oxysterols receptor LXR-beta (Homo sapiens)
Sequence (P19793 whole entry): as the sequence (P19793 whole entry) above
Sequence (P55055 whole entry): as the sequence (P55055 whole entry) above
Assay: Binding affinity to His-LXRbeta/FLAG-RXRalpha (unknown origin) by FITC-labeled T0901317 based fluorescence polarization assay
pKi: −log10 of the molar value.
READOUT KIND: pKi

# example entries with known answers
{"STRUCTURE": "CC(C)(C)OC(=O)c1cc(C(F)(F)F)ccc1COc1ccc(CCCC(=O)O)cc1", "pKi": 5.31}
{"STRUCTURE": "CC(C)(C)OC(=O)c1cc(C(F)(F)F)ccc1COc1ccc(-c2cccc(CC(=O)O)c2)cc1", "pKi": 6.44}

(I) CC(C)(C)OC(=O)c1cc(C(F)(F)F)ccc1COc1ccc(-c2cccc(C(=O)O)c2)cc1
(II) CC(C)(C)OC(=O)c1cc(C(F)(F)F)ccc1COc1ccc(CCCCCC(=O)O)cc1
(III) CC(C)(C)OC(=O)c1cc(C(F)(F)F)ccc1COc1ccc(-c2ccc(CC(=O)O)cc2)cc1
Query: Put the entries in order of pKi, starting with the largest number. Please express your ranking as an ordered list of the labels.
Result: III, II, I

---

Molecular target: Retinoic acid receptor RXR-alpha/oxysterols receptor LXR-beta (Homo sapiens)
Assay: Binding affinity to His-LXRbeta/FLAG-RXRalpha (unknown origin) by FITC-labeled T0901317 based fluorescence polarization assay
pKi: −log10 of the molar value.
READOUT KIND: pKi

// below: answered compounds
{"STRUCTURE": "CN(C(=O)CCC(=O)O)c1ccc(OCc2ccc(C(F)(F)F)cc2C(=O)OC(C)(C)C)cc1", "TARGET": "Retinoic acid receptor RXR-alpha/oxysterols receptor LXR-beta (Homo sapiens)", "pKi": 6.18}
{"STRUCTURE": "CC(=O)N(C)c1ccc(OCc2ccc(C(F)(F)F)c(O)c2C(=O)OC(C)(C)C)cc1", "TARGET": "Retinoic acid receptor RXR-alpha/oxysterols receptor LXR-beta (Homo sapiens)", "pKi": 6.77}

(I) CC(=O)N(C)c1ccc(OCc2ccc(C(F)(F)F)cc2C(=O)OC(C)(C)C)cc1
(II) CC(C)(C)OC(=O)c1cc(C(F)(F)F)ccc1COc1ccc(CCCCC(=O)O)cc1
Query: Endpoint returns whichever of I and II has the numerically higher pKi. Pick one; state its label.
Result: I
(I: 6.74, II: 6.20)
